This collection of values is drawn from ChEMBL document CHEMBL5058577.

- System: Fibroblast
- assay remarks: Multiplex assay against human fibroblast
- Format: toxicity, cell-based
- condition notes: 24 h, 10 µM, compound concentration 10 uM, replicate 2
metric name: Population Healthy Nuclei (%)
The answer is to be given in %; state only the numeric part.

Consider the following illustrative entries.
Cc1cnc(-c2cc(N3CCN(C(=O)CCS(C)(=O)=O)CC3)ncc2Cl)c(C)c1    67
CCc1cc2cc(NS(=O)(=O)c3ccc(C#N)cc3)ccc2n(CC)c1=O    38
CCCCC(=O)N(Cc1ccc(-c2ccccc2-c2nnn[nH]2)cc1)[C@H](C(=O)O)C(C)C    44

Kindly note the recorded Population Healthy Nuclei (%) for `CN1CCN(c2cc(-c3ccccc3)nc(N)n2)CC1` , which is 43

Kindly note the recorded Population Healthy Nuclei (%) for `COc1ccccc1N1CCN(C[C@@H](C(=O)NC(C)(C)C)c2ccccc2)CC1.Cl.Cl` , which is 41

Kindly note the recorded Population Healthy Nuclei (%) for `Cc1cccc(NC(=O)CN2CCC(c3ccccn3)CC2)c1.Cl.Cl` , which is 34

Kindly note the recorded Population Healthy Nuclei (%) for `N#Cc1c(Oc2cccc(OS(=O)(=O)CCCC(F)(F)F)c2)cccc1C(F)(F)F` , which is 23

Kindly note the recorded Population Healthy Nuclei (%) for `O=C1[C@H](Cc2ccc(O)cc2)N2C(=O)CCN(C(=O)NCc3ccccc3)[C@H]2CN1Cc1cccc2ccccc12` , which is 47

Kindly note the recorded Population Healthy Nuclei (%) for `NCCc1cn(S(=O)(=O)c2c(Cl)nc3sccn23)c2ccccc12.O=C(O)C(=O)O` , which is 51

Kindly note the recorded Population Healthy Nuclei (%) for `CCCOc1ccc2[nH]cc(C3=CCNCC3)c2n1.Cl` , which is 68

Kindly note the recorded Population Healthy Nuclei (%) for CC[C@@H](C)Nc1nc(C)nc2c(-c3ccc(OC)nc3C)c(C)nn12 [PEXACERFONT] , which is 47

Kindly note the recorded Population Healthy Nuclei (%) for Br.CS(=O)(=O)Nc1c(O)ccc2c1CCCC2C1=NCCN1 (centres undefined) , which is 44

Kindly note the recorded Population Healthy Nuclei (%) for COC[C@@H](c1ccc(C(F)(F)F)cc1)N1CCN(C2(C)CCN(C(=O)c3c(C)ncnc3C)CC2)C[C@@H]1C.O=C(O)/C=C\C(=O)O [VICRIVIROC MALEATE] , which is 39

Kindly note the recorded Population Healthy Nuclei (%) for Cc1c(CC(=O)O)c2cccnc2n1Cc1ccc(S(C)(=O)=O)cc1C(F)(F)F [FEVIPIPRANT] , which is 55

Kindly note the recorded Population Healthy Nuclei (%) for `CN(C)C(=O)Cn1cc(-c2ccc(-c3cncc4ccccc34)cc2)cn1` , which is 43

###

- System: Fibroblast
- assay remarks: Multiplex assay against human fibroblast
- Assay type: toxicity, cell-based
- condition notes: 12 h, 1 µM, compound concentration 1 uM, replicate 2
List of Population Mitotic Cells (%) values.
The answer is to be given in %; state only the numeric part.

Kindly note the recorded Population Mitotic Cells (%) for CN[C@@H](C)C(=O)N[C@H](C(=O)N1CCC[C@H]1C(=O)Nc1snnc1-c1ccccc1)C1CCCCC1 [GDC-0152] , which is 66

Kindly note the recorded Population Mitotic Cells (%) for `C[C@H](N)COC(=O)[C@@H](CCCCN)NC(=O)Cc1c(-c2ccc3ccccc3c2)[nH]c2c1ccc1ccccc12` , which is 50

Kindly note the recorded Population Mitotic Cells (%) for `Cc1cccc(NC(=O)CN2CCC(c3ccccn3)CC2)c1.Cl.Cl` , which is 66

Kindly note the recorded Population Mitotic Cells (%) for O=C(NCCN1CCC(n2c(=O)[nH]c3cc(Cl)ccc32)CC1)c1ccc(F)cc1 [HALOPEMIDE] , which is 56
